Target: FcγRIIIa V176
Experiment: Surface plasmon resonance (Biacore) binding of mAb3 from treated cultures to FcγRIIIa
Settings: mAb3 from culture fed with 200 μM additive, day 5
assay.readout: Kd
Remember to quote the unit after the number.

The reported Kd of the compound C[C@@H]1SC(O)[C@@H](O)[C@H](O)[C@@H]1O (stereo partly shown) was 52 nM

----------
Biological target: FcγRIIIa V176
Assay: Surface plasmon resonance (Biacore) binding of mAb3 from treated cultures to FcγRIIIa
Conditions: mAb3 from culture fed with 200 μM additive, day 14
assay.readout: Kd
Remember to quote the unit after the number.

The reported Kd of the molecule C[C@@H]1SC(O)[C@@H](O)[C@H](O)[C@@H]1O (stereo partly shown) was 28 nM

----------
Biological target: FcγRIIIa V176
Assay: Surface plasmon resonance (Biacore) binding of mAb3 from treated cultures to FcγRIIIa
Conditions: mAb3 from culture fed with 50 μM additive, day 5
assay.readout: Kd (µM)
Give just the numeric value; µM need not be written.

Fill in: FcγRIIIa V176 Kd for C[C@@H]1SC(O)[C@@H](O)[C@H](O)[C@@H]1O (stereo partly shown) = 0.085

----------
Target: FcγRIIIa V176
Test: Surface plasmon resonance (Biacore) binding of mAb3 from treated cultures to FcγRIIIa
Conditions: mAb3 from culture fed with 400 μM additive, day 5
Property: pKd; scope: individual molecules
The scale used: pKd is minus the common logarithm of the concentration in molar units.

molecule="CC(=O)OC1O[C@@H](C)[C@@H](OC(C)=O)[C@@H](OC(C)=O)[C@@H]1F (some centres unmarked) [2F-Peracetylfucose, reference compound]" assay_result=7.11

Now, please, on to the next molecule.
The reported pKd of the molecule C[C@@H]1SC(O)[C@@H](O)[C@H](O)[C@@H]1O (some centres unmarked) was 7.46

----------
Molecular target: FcγRIIIa V176
Assay: Surface plasmon resonance (Biacore) binding of mAb3 from treated cultures to FcγRIIIa
Conditions: mAb3 from culture fed with 400 μM additive, day 14
assay.readout: pKd
The scale used: pKd is minus the common logarithm of the concentration in molar units.

The reported pKd of the compound CC(=O)OC1O[C@@H](C)[C@@H](OC(C)=O)[C@@H](OC(C)=O)[C@@H]1F (stereo partly shown) [2F-Peracetylfucose, reference compound] was 7.64

----------
Target: FcγRIIIa V176
Test: Surface plasmon resonance (Biacore) binding of mAb3 from treated cultures to FcγRIIIa
Conditions: mAb3 from culture fed with 50 μM additive, day 12
Protocol: Binding of samples after 5-ThioFuc treatment was investigated by surface plasmon resonance technology using a Biacore T200 system (GE Healthcare, Uppsala, Sweden). The analysis temperature was set to 25° C. and sample compartment temperature to 15° C. […] The anti-His antibody was further used to capture His-tagged FcγRIIIa V176 ([…]) from AcroBiosystems (Newark, Del., USA). Binding was recorded continuously, while unspecific binding and injection artefacts were subtracted automatically. […]
assay.readout: Kd (µM)
Give just the numeric value; µM need not be written.

The reported Kd of the molecule C[C@@H]1SC(O)[C@@H](O)[C@H](O)[C@@H]1O (stereo partly shown) was 0.063

----------
Molecular target: FcγRIIIa V176
Assay: Surface plasmon resonance (Biacore) binding of mAb3 from treated cultures to FcγRIIIa
Conditions: mAb3 from culture fed with 200 μM additive, day 12
assay.readout: Kd

The reported Kd of the compound C[C@@H]1SC(O)[C@@H](O)[C@H](O)[C@@H]1O (stereo partly shown) was 40 nM
